- experimental.system: erythrocytes infected with P. falciparum field isolate 11014
- measurement.description: flow cytometry, staining of IEs
metric: % parasite recognition (%)

[
  {
    "binder": "MGC33 (antibody) VH: EVHLVESGGGLVQPGGSLRLSCEASGFTFSSYWMTWVRQAPGKGLEWVANINQDGSERYYVDSVKGRFTISRDTVKNSLYLQMNNLRAEDTAVYYCARQRFCSDGSLFHGEDLPRPTISAETGTVISLGSHVTFVCRGPLGVQTFRLERESRSRYSETEDVSQVGPSESEARFRIDSVSEGNAGLYRCIYYKPPKWSEQSDYLELRVKGEDVTWALLTYCGGDRDESDYYMDVWGKGTTVTVSS VL: QTVVTQEPSLTVSPGGTVTLTCASSTGSVTSGSFPNWFQQTPGQAPRSLIYSTTKKHSWTPARFSGSLLGGKAALTVSDTQPEDEAEYYCLLYCGGGQPWVFGGGTKLTVQ",
    "metric": "% parasite recognition",
    "assay.value": 2.9
  }
]
